Target sequence: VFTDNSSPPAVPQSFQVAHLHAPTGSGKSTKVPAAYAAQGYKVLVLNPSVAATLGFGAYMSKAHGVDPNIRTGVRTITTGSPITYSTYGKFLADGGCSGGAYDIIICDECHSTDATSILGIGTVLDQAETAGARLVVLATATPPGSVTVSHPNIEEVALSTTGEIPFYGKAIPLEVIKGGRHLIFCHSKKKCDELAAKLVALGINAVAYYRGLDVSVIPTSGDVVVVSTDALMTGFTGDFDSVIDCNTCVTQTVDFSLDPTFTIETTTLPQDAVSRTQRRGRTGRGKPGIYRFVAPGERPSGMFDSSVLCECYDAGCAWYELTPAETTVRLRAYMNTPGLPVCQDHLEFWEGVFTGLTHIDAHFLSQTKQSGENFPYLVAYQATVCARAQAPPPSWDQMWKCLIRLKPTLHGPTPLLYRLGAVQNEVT
pKi: −log10 of the molar value. Starred links: 1 amine or outer side, 2 acyl side, 3 side chain; linkers in the order of their positions; H or OH if unused. Non-standard residues stand in square brackets, D forms with d. Residues, ends and D or L forms follow the SMILES beside them. ξ: configuration not given here. Dip = N[C@H](C(=O)O)C(c1ccccc1)c1ccccc1; 2Nal = N[C@@H](Cc1ccc2ccccc2c1)C(=O)O; Cha = N[C@@H](CC1CCCCC1)C(=O)O; Ile(3ξ) = CCC(C)[C@H](N)C(=O)O; Chg = N[C@H](C(=O)O)C1CCCCC1; Suc = O=C(CCC(=O)[*:2])[*:1]
Class true (1): pKi at least 7. Class false (0): pKi below 7.

• COc1ccc2c(O[C@@H]3C[C@@H](C(=O)NC4(C(=O)O)CC4)N(C(=O)[C@@H](NC(=O)OC(C)(C)C)C(C)C)C3)cc(-c3ccccc3)nc2c1 [NS3 Protease Inhibitor, 6] = false (0)
• C=CC1C[C@]1(NC(=O)[C@@H](NC(=O)C(NC(=O)OC(C)(C)C)C(C)C)c1ccc(Oc2cc(-c3ccccc3)nc3cc(OC)ccc23)cc1)C(=O)NS(=O)(=O)c1ccccc1 (stereo partly specified) [NS3 Protease Inhibitor, 7] = false (0)
• O=C(O)CCC(=O)N[C@H](C(=O)N[C@@H](CCC(=O)O)C(=O)N[C@@H](Cc1ccc2ccccc2c1)C(=O)N[C@@H](CS)C(=O)O)C1CCCCC1 [NS3 Protease Inhibitor, 2] (Suc-[Chg]E[2Nal]C-OH) = false (0)
• CCC(C)[C@H](NC(=O)[C@@H](NC(=O)CCC(=O)O)C1CCCCC1)C(=O)N[C@@H](CC1CCCCC1)C(=O)N[C@@H](CS)C(=O)O (stereo partly specified) [NS3 Protease Inhibitor, 1] (Suc-[Chg][Ile(3ξ)][Cha]C-OH) = false (0)
• COc1ccc2c(O[C@@H]3C[C@H]4C(=O)N[C@]5(C(=O)O)C[C@H]5/C=C\CCCCC[C@H](NC(=O)OC5CCCC5)C(=O)N4C3)cc(-c3csc(NC(C)C)n3)nc2c1 = true (1)

Exercise: Could you please find out whether O=C(O)CCC(=O)N[C@H](C(=O)N[C@@H](CCC(=O)O)C(=O)N[C@@H](CCC(=O)O)C(=O)N[C@@H](CS)C(=O)O)C(c1ccccc1)c1ccccc1 [NS3 Protease Inhibitor, 3] (Suc-[Dip]EEC-OH) has pKi that meets 7 or exceeds it?
Key: false (0)

Exercise: pKi >= 7 for C=CC1C[C@]1(NC(=O)[C@@H]1C[C@@H](Oc2cc(-c3ccccc3)nc3cc(OC)ccc23)CN1C(=O)[C@@H](NC(=O)OC(C)(C)C)C(C)C)C(=O)NS(=O)(=O)c1ccccc1 (stereo partly specified) [NS3 Protease Inhibitor, 10] ?
Key: true (1)

Exercise: Determine whether this molecule has pKi no lower than 7: CC(=O)N[C@H](C(=O)N[C@@H](CCC(=O)O)C(=O)N[C@@H](Cc1ccc2ccccc2c1)C(=O)N[C@@H](CS)C(=O)O)C1CCCCC1 [NS3 Protease Inhibitor, 5] (Ac-[Chg]E[2Nal]C-OH)
Key: false (0)

Exercise: Item C=CC1C[C@]1(NC(=O)[C@@H]1C[C@@H](Oc2cc(-c3ccccc3)nc3cc(OC)ccc23)CN1C(=O)[C@@H](NC(=O)OC(C)(C)C)C(C)C)C(=O)O (stereo partly specified) [NS3 Protease Inhibitor, 9] with pKi of 7 or above?
Key: true (1)

Exercise: Entry CCC[C@H](NC(=O)[C@@H]1C[C@@H](Oc2cc(-c3ccccc3)nc3cc(OC)ccc23)CN1C(=O)[C@@H](NC(=O)OC(C)(C)C)C(C)C)C(=O)NS(=O)(=O)c1ccccc1 [NS3 Protease Inhibitor, 8] : is its pKi no less than 7?
Key: false (0)
